Assign inhibition at 0.37 µM to each entry below.
# assay.target: purified human HDAC6 (Homo sapiens)
# Construct: purchased BPS Bioscience 5006
# Sequence (Q9UBN7 1-1215): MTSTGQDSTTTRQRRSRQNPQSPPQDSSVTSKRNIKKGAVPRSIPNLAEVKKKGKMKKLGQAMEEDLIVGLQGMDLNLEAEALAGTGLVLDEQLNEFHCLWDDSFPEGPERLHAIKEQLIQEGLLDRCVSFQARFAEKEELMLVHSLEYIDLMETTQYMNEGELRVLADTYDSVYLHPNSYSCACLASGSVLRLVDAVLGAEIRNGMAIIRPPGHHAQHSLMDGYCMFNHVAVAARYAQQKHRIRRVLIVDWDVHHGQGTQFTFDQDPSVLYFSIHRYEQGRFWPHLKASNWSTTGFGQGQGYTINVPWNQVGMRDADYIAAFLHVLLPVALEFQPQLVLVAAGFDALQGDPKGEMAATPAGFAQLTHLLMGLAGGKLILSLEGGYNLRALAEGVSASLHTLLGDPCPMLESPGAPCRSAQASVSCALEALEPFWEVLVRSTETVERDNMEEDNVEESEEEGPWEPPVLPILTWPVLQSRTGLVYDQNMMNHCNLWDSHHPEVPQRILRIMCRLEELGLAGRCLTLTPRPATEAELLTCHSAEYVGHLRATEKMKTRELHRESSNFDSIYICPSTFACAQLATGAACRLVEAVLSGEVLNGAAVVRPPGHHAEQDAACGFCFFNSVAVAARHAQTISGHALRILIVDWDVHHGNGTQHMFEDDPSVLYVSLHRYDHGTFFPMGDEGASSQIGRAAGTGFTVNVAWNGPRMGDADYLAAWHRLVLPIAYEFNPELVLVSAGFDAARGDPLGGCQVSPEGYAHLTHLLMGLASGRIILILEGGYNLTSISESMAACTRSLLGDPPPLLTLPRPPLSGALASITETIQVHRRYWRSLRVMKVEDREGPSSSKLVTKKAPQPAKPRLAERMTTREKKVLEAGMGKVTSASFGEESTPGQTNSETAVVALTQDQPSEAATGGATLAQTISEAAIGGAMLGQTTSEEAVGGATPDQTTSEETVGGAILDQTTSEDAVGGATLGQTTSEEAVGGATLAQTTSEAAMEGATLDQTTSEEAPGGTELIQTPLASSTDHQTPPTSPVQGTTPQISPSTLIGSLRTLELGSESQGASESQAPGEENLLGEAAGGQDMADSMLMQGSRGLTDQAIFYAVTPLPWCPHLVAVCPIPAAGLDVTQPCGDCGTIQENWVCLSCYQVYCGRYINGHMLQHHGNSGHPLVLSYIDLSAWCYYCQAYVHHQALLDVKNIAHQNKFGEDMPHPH
# assay.comment: HDAC6 Enzyme Assay
# Format: biochemical
# experimental.conditions: compound concentration 0.37 μM, read-out: Percent Inhibition
Numbers only, in %.

Examples with answers:
What inhibition at 0.37 µM value was documented for this molecule, `O=C(NO)c1ccc2ncn(Cc3cccc(-c4ccccc4C(F)(F)F)c3)c(=O)c2c1` ?
91.4

What inhibition at 0.37 µM value was documented for this molecule, `O=C(NO)c1ccc2c(=O)[nH]c(CC3CCCCC3)nc2c1` ?
92.5

What inhibition at 0.37 µM value was documented for this molecule, `O=C(NO)c1ccc2c(=O)[nH]c(-c3ccccc3)nc2c1` ?
88.2

What inhibition at 0.37 µM value was documented for this molecule, `CC(C)(C)C(=O)Nc1ncccc1-c1cccc(Cn2cnc3ccc(C(=O)NO)cc3c2=O)c1` ?
92.4

What inhibition at 0.37 µM value was documented for this molecule, `O=C(NO)c1ccc2ncn(CCc3cccc(-c4cccc(Cl)c4)c3)c(=O)c2c1` ?
87.7

What inhibition at 0.37 µM value was documented for this molecule, `CC(C)(C)C(=O)Nc1ncccc1-c1cccc(CCn2cnc3ccc(C(=O)NO)cc3c2=O)c1` ?
92

What inhibition at 0.37 µM value was documented for this molecule, `COc1ccc(-c2cccc(CCn3cnc4ccc(C(=O)NO)cc4c3=O)c2)cn1` ?
92.6

What inhibition at 0.37 µM value was documented for this molecule, `O=C(NO)c1ccc2ccn(-c3ccccn3)c(=O)c2c1` ?
90.3

Give one value of inhibition at 0.37 µM per listed molecule.
1. O=C(NO)c1ccc2ccn(CCC(c3ccc(Cl)cc3)c3ccc(Cl)cc3)c(=O)c2c1
2. Cc1noc(C)c1-c1cccc(CCn2cnc3ccc(C(=O)NO)cc3c2=O)c1

1. 91.5
2. 90.5

What inhibition at 0.37 µM value was documented for this molecule, `O=C(NO)c1ccc2ncn(CCc3cccc(-c4ccc(S(=O)(=O)N5CCCCC5)cc4)c3)c(=O)c2c1` ?
90.6

Data origin: patent US8765773B2
